target: TLR7 (Homo sapiens, UniProt Q9NYK1); construct: Human peripheral blood mononuclear cells (PBMCs) consist of lymphocytes, monocytes and dendritic cells that express TLR7, TLR8 and TLR9; endogenous in cells; assay: TLR7 human PBMC cell-based assay (antagonist, GS-986 stimulated cytokine release); conditions: human PBMCs; TLR7 agonist GS-986 400 nM, 6 hours; cytokines (IL-6 and IFNα) in supernatant; read-out: TLR-7 EC50
Sequence (Q9NYK1 27-1049): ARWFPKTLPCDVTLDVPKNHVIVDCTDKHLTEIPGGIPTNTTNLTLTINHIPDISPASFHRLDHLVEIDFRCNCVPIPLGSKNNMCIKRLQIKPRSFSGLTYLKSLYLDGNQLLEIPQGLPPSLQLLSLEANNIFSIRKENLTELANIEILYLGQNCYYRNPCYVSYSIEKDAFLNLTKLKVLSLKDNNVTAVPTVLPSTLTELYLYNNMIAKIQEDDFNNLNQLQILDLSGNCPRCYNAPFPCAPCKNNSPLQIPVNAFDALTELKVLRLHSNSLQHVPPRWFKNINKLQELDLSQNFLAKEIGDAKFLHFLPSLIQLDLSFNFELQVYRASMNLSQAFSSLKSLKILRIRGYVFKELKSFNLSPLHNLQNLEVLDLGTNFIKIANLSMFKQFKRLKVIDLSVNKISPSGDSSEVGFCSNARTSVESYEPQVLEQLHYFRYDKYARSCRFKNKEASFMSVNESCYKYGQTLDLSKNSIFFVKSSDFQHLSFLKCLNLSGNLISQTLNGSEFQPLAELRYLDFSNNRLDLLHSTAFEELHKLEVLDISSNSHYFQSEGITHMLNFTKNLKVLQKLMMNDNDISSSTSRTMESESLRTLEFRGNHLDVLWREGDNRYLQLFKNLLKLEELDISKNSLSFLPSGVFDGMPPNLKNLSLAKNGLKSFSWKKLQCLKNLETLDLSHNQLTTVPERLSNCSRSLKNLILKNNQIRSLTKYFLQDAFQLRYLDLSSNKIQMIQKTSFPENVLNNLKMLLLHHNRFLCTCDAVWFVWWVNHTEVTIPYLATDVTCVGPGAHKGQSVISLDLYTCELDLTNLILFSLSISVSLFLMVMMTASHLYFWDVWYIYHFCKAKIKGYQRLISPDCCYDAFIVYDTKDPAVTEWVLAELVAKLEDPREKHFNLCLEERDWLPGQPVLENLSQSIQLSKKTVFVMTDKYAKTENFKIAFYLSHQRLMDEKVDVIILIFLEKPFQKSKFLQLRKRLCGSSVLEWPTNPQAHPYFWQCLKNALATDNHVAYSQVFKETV

{"compound": "Cc1cc(-c2[nH]c3cc(C4CCN(C(=O)[C@H]5CCN(C)C5)CC4)sc3c2C(C)C)cn2ncnc12", "unitDescriptor": "nM", "EC50": 0.5}
{"compound": "Cc1cc(-c2[nH]c3cc(C(=O)N4CCN5CCOC[C@H]5C4)sc3c2C(C)C)cc(C)n1", "unitDescriptor": "nM", "EC50": 682}
{"compound": "Cc1cc(-c2[nH]c3cc(C4CC5CCC4CN5CC(N)=O)sc3c2C(C)C)cn2ncnc12 (stereo not drawn)", "unitDescriptor": "nM", "EC50": 0.76}
{"compound": "Cc1cc(-c2[nH]c3cc(C(=O)N4CCC5(CCNC5)CC4)sc3c2C(C)C)cn2ncnc12", "unitDescriptor": "nM", "EC50": 1.2}
{"compound": "Cc1cc(-c2[nH]c3cc(C4CCC5CN(CC(N)=O)CCC5C4)sc3c2C(C)C)cn2ncnc12 (stereo not drawn)", "unitDescriptor": "nM", "EC50": 0.56}
{"compound": "Cc1cc(-c2[nH]c3cc(C(=O)N(C)CC4CCN(CC(N)=O)CC4)sc3c2C(C)C)cn2ncnc12", "unitDescriptor": "nM", "EC50": 11.4}
{"compound": "Cc1cc(-c2[nH]c3cc(C(=O)N(C)C4CCC(N5CC(F)(F)C5)CC4)sc3c2C(C)C)cn2ncnc12 (stereo not drawn)", "unitDescriptor": "nM", "EC50": 53.4}
{"compound": "Cc1cc(-c2[nH]c3cc(C(=O)N(C)CCN4CCOCC4)sc3c2C(C)C)cn2ncnc12", "unitDescriptor": "nM", "EC50": 45.2}
{"compound": "CN[C@H]1CCN(C(=O)c2cc3[nH]c(-c4cc(C)c5ncnn5c4)c(C(C)C)c3s2)C1", "unitDescriptor": "nM", "EC50": 4.9}
{"compound": "Cc1cc(-c2[nH]c3cc(C(=O)N4CC[C@H](F)[C@@H](N)C4)sc3c2C(C)C)cc(C)n1", "unitDescriptor": "nM", "EC50": 103}
{"compound": "Cc1cc(-c2[nH]c3cc(C4=NCC5(CCNCC5)O4)sc3c2C(C)C)cn2ncnc12", "unitDescriptor": "nM", "EC50": 0.2}
{"compound": "Cc1cc(-c2[nH]c3cc(C4CCN(C5CCC5)CC4)sc3c2C(C)C)cn2ncnc12", "unitDescriptor": "nM", "EC50": 2.5}
{"compound": "Cc1cc(-c2[nH]c3cc(-c4nc(C5CCNCC5)no4)sc3c2C(C)C)cn2ncnc12", "unitDescriptor": "nM", "EC50": 0.1}
{"compound": "Cc1cc(-c2[nH]c3cc(C(=O)N4C[C@H]5C[C@@H]4CN5)sc3c2C(C)C)cc(C)n1", "unitDescriptor": "nM", "EC50": 70.6}
{"compound": "Cc1cc(-c2[nH]c3cc(C(=O)N(C)[C@H]4CNC[C@@H](C(F)(F)F)C4)sc3c2C(C)C)cn2ncnc12", "unitDescriptor": "nM", "EC50": 9}
{"compound": "Cc1cc(CN2CCC(c3cc4[nH]c(-c5cc(C)c6ncnn6c5)c(C(C)C)c4s3)CC2)no1", "unitDescriptor": "nM", "EC50": 18.2}
{"compound": "Cc1cc(-c2[nH]c3cc(C(=O)N4CCC(N)CC4)sc3c2C(C)C)cc(C)n1", "unitDescriptor": "nM", "EC50": 37.5}
{"compound": "Cc1cc(-c2[nH]c3cc(C4CCN(C(=O)C5CCCN(C)C5)CC4)sc3c2C(C)C)cn2ncnc12 (stereo not drawn)", "unitDescriptor": "nM", "EC50": 0.4}
{"compound": "Cc1cc(-c2[nH]c3cc(C(=O)N4C[C@@H](N)CC[C@@H]4C)sc3c2C(C)C)cn2ncnc12", "unitDescriptor": "nM", "EC50": 2.2}
{"compound": "Cc1cc(-c2[nH]c3cc(C(=O)N4CC(N)C4)sc3c2C(C)C)cn2ncnc12", "unitDescriptor": "nM", "EC50": 12.7}
{"compound": "Cc1cc(-c2[nH]c3cc(C4CCCN(CC(N)=O)C4)sc3c2C(C)C)cn2ncnc12 (stereo not drawn)", "unitDescriptor": "nM", "EC50": 24.5}
{"compound": "Cc1cc(-c2[nH]c3cc(C(=O)N4CCC5(CCNCC5)C4)sc3c2C(C)C)cn2ncnc12", "unitDescriptor": "nM", "EC50": 13}
{"compound": "Cc1cc(-c2[nH]c3cc(C(=O)N4CC5CCC(C4)N5)sc3c2C(C)C)cc(C)n1", "unitDescriptor": "nM", "EC50": 43.5}
{"compound": "Cc1cc(-c2[nH]c3cc(C(=O)N(C)[C@@H]4CCNC[C@H]4F)sc3c2C(C)C)cn2ncnc12", "unitDescriptor": "nM", "EC50": 0.6}
{"compound": "Cc1c(-c2[nH]c3cc(C(=O)N4CCNC(C)(C)C4)sc3c2C(C)C)cn2ncnc2c1C", "unitDescriptor": "nM", "EC50": 1}
{"compound": "Cc1cc(-c2[nH]c3cc(C4CCC5(C4)CN(CC(N)=O)C5)sc3c2C(C)C)cn2ncnc12 (single isomer, unassigned) [Example 310]", "unitDescriptor": "nM", "EC50": 0.18}
{"compound": "Cc1cc(-c2[nH]c3cc(-c4nc5ccncc5[nH]4)sc3c2C(C)C)cn2ncnc12", "unitDescriptor": "nM", "EC50": 18.6}
{"compound": "Cc1cc(-c2[nH]c3cc(-c4cccc(N5CCNCC5)c4)sc3c2C(C)C)cn2ncnc12", "unitDescriptor": "nM", "EC50": 8.1}
{"compound": "Cc1cc(-c2[nH]c3cc(C(=O)N(C)[C@H]4CNC[C@H]4F)sc3c2C(C)C)cn2ncnc12", "unitDescriptor": "nM", "EC50": 7.9}
{"compound": "CCN1C[C@@H](N(C)C(=O)c2cc3[nH]c(-c4cn5ncnc5c(C)c4C)c(C(C)C)c3s2)C[C@@H](C(F)(F)F)C1", "unitDescriptor": "nM", "EC50": 360}

Source of measurements: patent US20240217990A1
